Values compiled from patent US20210009630A1.

# subject of test: human STING (biotinylated STING protein, residues 139-379 of Q86WV6, H232R) (Homo sapiens, UniProt Q86WV6, H232R)
# Sequence (Q86WV6 139-379 H232R): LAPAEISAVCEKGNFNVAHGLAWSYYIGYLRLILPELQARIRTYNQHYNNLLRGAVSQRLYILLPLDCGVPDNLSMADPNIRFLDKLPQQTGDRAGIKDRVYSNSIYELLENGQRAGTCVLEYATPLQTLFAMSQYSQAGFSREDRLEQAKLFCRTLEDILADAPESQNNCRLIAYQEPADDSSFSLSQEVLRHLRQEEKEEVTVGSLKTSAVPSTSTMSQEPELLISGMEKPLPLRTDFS
# assay procedure: STING SPA binding assay
readout label: IC50 (nM)

Some compounds with recorded IC50:
# compound, readout label, measurement
measured = [
    ("Nc1nc2c(nnn2[C@@H]2O[C@@H]3COP(=O)(O)O[C@H]4[C@@H](F)[C@H](n5cnc6c(N)ncnc65)O[C@@H]4CNS(=O)(=O)O[C@@H]2C3)c(=O)[nH]1", "IC50", 360),
    ("Nc1nc2c(ncn2C2O[C@@H]3COP(=O)(O)O[C@H]4C[C@H](n5cnc6c(N)ncnc65)OC4CNS(=O)(=O)O[C@@H]2[C@@H]3O)c(=O)[nH]1 (stereo partly shown)", "IC50", 1140),
    ("CO[C@H]1[C@H]2OP(=O)(O)OC[C@H]3O[C@@H](n4cnc5c(N)ncnc54)C[C@@H]3NS(=O)(=O)OC[C@H]1O[C@H]2n1cnc2c(=O)[nH]c(N)nc21", "IC50", 47),
    ("Nc1ncnc2c1ncn2[C@@H]1O[C@@H]2CNS(=O)(=O)O[C@@H]3[C@H](F)[C@@H](COP(=O)(O)O[C@H]2[C@H]1F)O[C@H]3n1cnc2c(=O)[nH]cnc21", "IC50", 21),
    ("CO[C@H]1[C@H]2OS(=O)(=O)NC[C@H]3O[C@@H](n4cnc5c(N)ncnc54)[C@H](F)[C@@H]3OP(=O)(O)OC[C@H]1O[C@H]2n1cnc2c(=O)[nH]c(N)nc21", "IC50", 4.6),
]

a. Nc1ncnc2c1ncn2C1O[C@@H]2CNS(=O)(=O)O[C@H]3C(n4cnc5c(N)ncnc54)O[C@H](COP(=O)(O)O[C@H]2[C@H]1F)[C@H]3O (stereo partly shown)
b. COC1C2COP(=O)(O)OC3C(CNS(=O)(=O)OC1C(n1nnc4c(=O)[nH]c(N)nc41)O2)OC(n1cnc2c(N)ncnc21)C3F (stereo not shown)
// compare measured IC50, left a , right b , return larger // output: label of the selected item a

---

# subject of test: human STING (biotinylated STING protein, residues 139-379 of Q86WV6, H232R) (Homo sapiens, UniProt Q86WV6, H232R)
# assay procedure: STING SPA binding assay
readout label: IC50 (nM)

Some compounds with recorded IC50:
# compound, IC50 / nM
rows = [
    ("CO[C@H]1[C@H]2OS(=O)(=O)NC[C@]34CO[C@H](C3OP(=O)(O)OC[C@H]1O[C@H]2n1cnc2c(=O)[nH]c(N)nc21)[C@H](n1cnc2c(N)ncnc21)O4 (stereo partly shown)", 2790),
    ("CO[C@H]1[C@H]2OS(=O)(=O)NC[C@H]3O[C@@H](n4cnc5c(N)ncnc54)[C@@H](F)[C@@H]3O[P@](=O)(O)OC[C@H]1O[C@H]2n1cnc2c(=O)[nH]c(N)nc21", 190),
    ("CO[C@H]1[C@H]2OP(=O)(O)OC[C@H]3O[C@@H](n4cnc5c(=O)[nH]cnc54)[C@H](F)[C@@H]3OS(=O)(=O)NC[C@H]1O[C@H]2n1cnc2c(=O)[nH]c(N)nc21", 4010),
]

a. CO[C@H]1[C@H]2OP(=O)(O)OC[C@H]3OC(n4cnc5c(N)ncnc54)C[C@@H]3OS(=O)(=O)NC[C@H]1O[C@H]2n1cnc2c(=O)[nH]c(N)nc21 (stereo partly shown)
b. CO[C@H]1[C@H]2OS(=O)(=O)NC[C@H]3O[C@@H](n4cnc5c(N)ncnc54)[C@H](F)[C@@H]3OP(=O)(O)OC[C@H]1O[C@H]2n1cc(F)c2c(=O)n(C)cnc21
c. Nc1nc2c(ncn2[C@@H]2O[C@@H]3COP(=O)(O)O[C@H]4[C@@H](F)[C@H](n5cnc6c(N)ncnc65)O[C@@H]4CNS(=O)(=O)O[C@@H]2[C@@H]3O)c(=O)[nH]1
d. Nc1nc2c(ncn2[C@@H]2O[C@@H]3CNS(=O)(=O)OC4[C@@H](F)[C@H](n5cnc6c(N)ncnc65)O[C@@H]4COP(=O)(O)O[C@@H]2[C@@H]3O)c(=O)[nH]1 (stereo partly shown)
e. CO[C@H]1[C@H]2OP(=O)(O)OC[C@@]34CO[C@@H]([C@H](n5cnc6c(N)ncnc65)O3)[C@@H]4OS(=O)(=O)NC[C@H]1O[C@H]2n1cnc2c(=O)[nH]c(N)nc21
Reorder: IC50, max to min. Reply format: the labels, ordered as requested. e, a, d, b, c

---

# subject of test: human STING (biotinylated STING protein, residues 139-379 of Q86WV6, H232R) (Homo sapiens, UniProt Q86WV6, H232R)
# assay procedure: STING SPA binding assay
readout label: IC50 (µM)

P. Nc1nc2c(nnn2[C@@H]2O[C@@H]3CNS(=O)(=O)O[C@H]4[C@@H](F)[C@H](n5cnc6c(N)ncnc65)O[C@@H]4COP(=O)(O)O[C@@H]2C3)c(=O)[nH]1 [Compound 37]
Q. CO[C@H]1[C@H]2OP(=O)(O)OC[C@H]3OC(n4cnc5c(N)ncnc54)[C@H](F)[C@@H]3OS(=O)(=O)NC[C@H]1O[C@H]2n1cnc2c(=O)[nH]c(N)nc21 (stereo partly drawn) [Compound 22]
// compare measured IC50, left P , right Q , return larger // output: label of the selected item P
(P: 12.4 µM, Q: 0.092 µM)

---

# subject of test: human STING (biotinylated STING protein, residues 139-379 of Q86WV6, H232R) (Homo sapiens, UniProt Q86WV6, H232R)
# assay procedure: STING SPA binding assay
pIC50: −log10 of the molar value.
readout label: pIC50

Some compounds with recorded pIC50:
# compound, measurement
records = [
    ("CO[C@H]1[C@H]2OS(=O)(=O)NC[C@H]3O[C@@H](n4cnc5c(N)ncnc54)C[C@@H]3OP(=O)(O)OC[C@H]1O[C@H]2n1cnc2c(=O)[nH]c(N)nc21", 6.66),
    ("CO[C@H]1[C@H]2OS(=O)(=O)NC[C@H]3O[C@@H](n4cnc5c(N)ncnc54)[C@H](F)[C@@H]3OP(=O)(O)OC[C@H]1O[C@H]2n1cc(F)c2c(=O)[nH]cnc21", 6.12),
    ("CO[C@H]1[C@H]2OP(=O)(O)OC[C@H]3O[C@@H](n4cnc5c(N)ncnc54)[C@H](F)[C@@H]3NS(=O)(=O)OC[C@H]1O[C@H]2n1cnc2c(=O)[nH]c(N)nc21", 7.96),
]

A. Nc1nc2c(ncn2C2OC3CNS(=O)(=O)OC4C(COP(=O)(O)OC2C3)OC(n2cnc3c(N)ncnc32)C4F)c(=O)[nH]1 (stereo not drawn)
B. CO[C@H]1[C@H]2OS(=O)(=O)NC[C@H]3O[C@@H](n4cnc5c(N)ncnc54)C[C@@H]3OP(=O)(O)OC[C@H]1O[C@H]2n1cnc2c(=O)[nH]cnc21
// compare measured pIC50, left A , right B , return larger // output: label of the selected item B
(B: 7.18, A: 4.55)
